Origin of measurements: patent US20120201826A1

A collection of binders and their measured Chemotaxis IC50 (nM), 1 nM huRANTES; L1.2-hCCR5 cells; IgG1 format
Target: T1, recombinant human RANTES (huRANTES, Peprotech) (human, UniProt P13501 24-91)
T1 sequence: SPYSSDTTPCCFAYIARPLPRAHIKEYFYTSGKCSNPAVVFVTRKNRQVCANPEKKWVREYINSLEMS
Experiment: cell-based or functional assay
Respond numerically; units are nM and should not be typed.

In one line, give reported Chemotaxis IC50 (nM), 1 nM huRANTES; L1.2-hCCR5 cells; IgG1 format of the entry 1D9 antibody, IgG1 format (antibody, V domains shown) VH: QVQLVQSGAEVKKPGASVKVSCKVSGYTLTEFAMHWVRQAPGKGLEWMGGFVPEDGETIYAQKFQGRVTMTEDTSTDTAYMELSSLRSEDTAVYYCATDPLYTPGLEPWGQGTTVTVSS VL: SYVLTQPPSVSVAPGQTARITCGGNNIESKSVHWYQQKPGQAPVLVVYDDSDRPSGIPERFSGSNSGNTATLTISRVEAGDEADYYCQVWDSNTDHWVFGGGTKLTVLG .
0.35

In one line, give reported Chemotaxis IC50 (nM), 1 nM huRANTES; L1.2-hCCR5 cells; IgG1 format of the entry 5E1 antibody, IgG1 format (antibody, V domains shown) VH: QVQLVQSGAEVKKPGASVKVSCKVSGYTLNDFAMHWVRQAPGKGLEWMGGYVPEDGDTIYAQKFQGRVTMTEDTSTDTAYMELSSLRSEDTAVYYCATDYLYIPSLSYWGQGTTVTVSS VL: SYVLTQPPSVSVAPGQTARITCGGNNIESKSVHWYQQKPGQAPVLVVYDDSDRPSGIPERFSGSNSGNTATLTISRVEAGDEADYYCQVWDSNTDHWVFGGGTKVTVL .
0.82
